Target: HLA-B*15:01
Test: IEDB peptide-MHC binding, purified MHC/direct/fluorescence; filed as Kd, often an IC50 or EC50 that approximates it; bounds were set here for any values at or beyond the usual limits of such assays
Conditions: source organism: Pseudomonas aeruginosa
MEASURED METRIC: Kd
Respond with the figure and its unit, in that order.

INPUT: Name the recorded Kd for LQKVPHTRY .
OUTPUT: 476 nM

====

Biological target: HLA-A*24:03
Experiment: IEDB peptide-MHC binding, purified MHC/competitive/fluorescence; filed as Kd, often an IC50 or EC50 that approximates it; bounds were set here for any values at or beyond the usual limits of such assays
Conditions: source organism: Lechiguanas virus
MEASURED METRIC: pKd
One number for each entry, as −log10 of the molar value.

INPUT: Requested field: pKd. Item: LQPSDTLLF
OUTPUT: 8.31

====

Biological target: HLA-A*26:01
Assay: IEDB peptide-MHC binding, purified MHC/competitive/fluorescence; filed as Kd, often an IC50 or EC50 that approximates it; bounds were set here for any values at or beyond the usual limits of such assays
Details: source organism: Vaccinia virus Tian Tan
MEASURED METRIC: Kd (nM)
Give bare numbers, in nM.

INPUT: Which measured Kd belongs to KVFFGPIYY , tested on HLA-A*26:01?
OUTPUT: 3000

====

Target: HLA-A*31:01
Experiment: IEDB peptide-MHC binding, purified MHC/competitive/radioactivity; filed as Kd, often an IC50 or EC50 that approximates it; bounds were set here for any values at or beyond the usual limits of such assays
Conditions: source organism: Mammarenavirus tacaribeense
MEASURED METRIC: Kd (nM)
Give bare numbers, in nM.

INPUT: Can you look up Kd on HLA-A*31:01 for QYIHCFRKPH ?
OUTPUT: 386

====

Target: HLA-B*08:01
Assay: IEDB peptide-MHC binding, purified MHC/direct/fluorescence; filed as Kd, often an IC50 or EC50 that approximates it; bounds were set here for any values at or beyond the usual limits of such assays
Details: source organism: Influenza A virus (A/goose/Hong Kong/8/1976(H1N1))
pKd: −log10 of the molar value.
MEASURED METRIC: pKd

INPUT: Which pKd value belongs to KTTYWWDGL ?
OUTPUT: ≤ 4.70

====

Biological target: HLA-A*01:01
Test: IEDB peptide-MHC binding, purified MHC/direct/fluorescence; filed as Kd, often an IC50 or EC50 that approximates it; bounds were set here for any values at or beyond the usual limits of such assays
Settings: source organism: Corynebacterium glutamicum
MEASURED METRIC: Kd

INPUT: What value of Kd has been reported for the following sequence? IVAWTRTAT
OUTPUT: ≥ 20 µM

Proceed to the following item.
INPUT: If you can, please state the reported Kd value of AEHDPWWAV .
OUTPUT: ≥ 20 µM

====

Molecular target: HLA-B*15:09
Assay: IEDB peptide-MHC binding, purified MHC/direct/fluorescence; filed as Kd, often an IC50 or EC50 that approximates it; bounds were set here for any values at or beyond the usual limits of such assays
Settings: source organism: Mycobacterium tuberculosis CDC1551
MEASURED METRIC: Kd

INPUT: Please state recorded Kd (tested on HLA-B*15:09) of ALRSRWRAL
OUTPUT: ≥ 20 µM

====

Target: HLA-C*12:03
Assay: IEDB peptide-MHC binding, purified MHC/direct/fluorescence; filed as Kd, often an IC50 or EC50 that approximates it; bounds were set here for any values at or beyond the usual limits of such assays
Conditions: source organism: Homo sapiens
MEASURED METRIC: pKd
One number for each entry, as −log10 of the molar value.

INPUT: For HLA-C*12:03, provide pKd of YLQQNTHTL please.
OUTPUT: 7.05

====

Target: HLA-A*03:01
Assay: IEDB peptide-MHC binding, purified MHC/competitive/fluorescence; filed as Kd, often an IC50 or EC50 that approximates it; bounds were set here for any values at or beyond the usual limits of such assays
Details: source organism: Ephydatia fluviatilis
pKd: −log10 of the molar value.
MEASURED METRIC: pKd

INPUT: Given the entry TLKPGTMSV , what pKd was observed with HLA-A*03:01?
OUTPUT: ≤ 4.70

====

Biological target: HLA-A*02:01
Experiment: IEDB peptide-MHC binding, purified MHC/direct/fluorescence; filed as Kd, often an IC50 or EC50 that approximates it; bounds were set here for any values at or beyond the usual limits of such assays
Conditions: source organism: Francisella tularensis subsp. holarctica LVS
MEASURED METRIC: Kd

INPUT: May I ask what Kd has been recorded for FQVNRFTGY ?
OUTPUT: ≥ 20 µM

Would you kindly look at the next entry?
INPUT: Give its Kd value. Item: YLYPWSLGL
OUTPUT: ≤ 0.001 µM

====

Target: HLA-A*03:01
Assay: IEDB peptide-MHC binding, purified MHC/direct/fluorescence; filed as Kd, often an IC50 or EC50 that approximates it; bounds were set here for any values at or beyond the usual limits of such assays
Conditions: source organism: Influenza A virus (A/tiger/Thailand/CU-T6/04(H5N1))
pKd: −log10 of the molar value.
MEASURED METRIC: pKd

INPUT: Dear colleague, I am looking for the recorded pKd of the following sequence: TYQWIIRNW
OUTPUT: ≤ 4.70

====

Molecular target: HLA-A*26:01
Test: IEDB peptide-MHC binding, purified MHC/competitive/radioactivity; filed as Kd, often an IC50 or EC50 that approximates it; bounds were set here for any values at or beyond the usual limits of such assays
Conditions: source organism: Dengue virus 1 Brazil/97-11/1997
Please provide measured Kd for the entries that follow.
Numbers only, in µM.

INPUT: Bench note: what Kd did HVTRGAVLMY show?
OUTPUT: 0.233

INPUT: Given the sequence ETLEQMQRKH , what is its reported Kd?
OUTPUT: 14

# context switch: different sequence, same Kd
INPUT: Consider the sequence shown here: TTSGTYVSAI What is its recorded Kd?
OUTPUT: 17

====

Target: HLA-A*02:03
Assay: IEDB peptide-MHC binding, purified MHC/competitive/fluorescence; filed as Kd, often an IC50 or EC50 that approximates it; bounds were set here for any values at or beyond the usual limits of such assays
Conditions: source organism: Giardia lamblia ATCC 50803
MEASURED METRIC: Kd

INPUT: Name the reported Kd value associated with the sequence ELLDHLLLF
OUTPUT: ≥ 20 µM

====

For each record, write down the corresponding pKd.
Target: HLA-B*08:03
Assay: IEDB peptide-MHC binding, purified MHC/direct/fluorescence; filed as Kd, often an IC50 or EC50 that approximates it; bounds were set here for any values at or beyond the usual limits of such assays
Conditions: source organism: Variola virus
pKd: −log10 of the molar value.

INPUT: Look at this sequence and give its reported pKd. SLYKYLLLR
OUTPUT: ≤ 4.70

Moving on to the next sequence.
INPUT: Dear colleague, I am looking for the recorded pKd of the following sequence: KVFFGPIYY
OUTPUT: ≤ 4.70

====

Biological target: HLA-B*27:03
Assay: IEDB peptide-MHC binding, purified MHC/competitive/fluorescence; filed as Kd, often an IC50 or EC50 that approximates it; bounds were set here for any values at or beyond the usual limits of such assays
Settings: source organism: Entamoeba histolytica HM-1:IMSS
MEASURED METRIC: Kd

INPUT: # get_value(readout='Kd', item= LICYQIEYI )
OUTPUT: ≥ 20 µM

====

Target: HLA-B*18:01
Experiment: IEDB peptide-MHC binding, purified MHC/competitive/radioactivity; filed as Kd, often an IC50 or EC50 that approximates it; bounds were set here for any values at or beyond the usual limits of such assays
Conditions: source organism: Mammarenavirus brazilense
MEASURED METRIC: Kd (µM)
Numbers only, in µM.

INPUT: Quick one: Kd of GDNEIEYGF ?
OUTPUT: 4.07

====

Target: HLA-B*51:01
Assay: IEDB peptide-MHC binding, purified MHC/competitive/fluorescence; filed as Kd, often an IC50 or EC50 that approximates it; bounds were set here for any values at or beyond the usual limits of such assays
Conditions: source organism: Ephydatia fluviatilis
MEASURED METRIC: Kd

INPUT: So what does the record say about Kd for TLKPGTMSV ?
OUTPUT: ≥ 20 µM

====

Molecular target: HLA-B*40:02
Experiment: IEDB peptide-MHC binding, purified MHC/competitive/radioactivity; filed as Kd, often an IC50 or EC50 that approximates it; bounds were set here for any values at or beyond the usual limits of such assays
Conditions: source organism: Lymphocytic choriomeningitis virus (strain Armstrong)
MEASURED METRIC: pKd
Answers are plain numbers, as −log10 of the molar value.

INPUT: Fill in: pKd of ADQAIANGV is ___
OUTPUT: 5.48

====

Target: HLA-B*15:01
Assay: IEDB peptide-MHC binding, purified MHC/direct/fluorescence; filed as Kd, often an IC50 or EC50 that approximates it; bounds were set here for any values at or beyond the usual limits of such assays
Settings: source organism: Influenza A virus (A/goose/Hong Kong/8/1976(H1N1))
pKd: −log10 of the molar value.
MEASURED METRIC: pKd

INPUT: Recorded pKd for KTTYWWDGL , please?
OUTPUT: ≤ 4.70
